I'd appreciate it if you could supply pIC50 values for the items below.
# assay.notes: Antiproliferative activity against human PC3 cells after 72 hrs by MTT assay
# Type: functional, cell-based
# details: PC-3, 72 h
API: returns pIC50 as number; meaning -log10 of concentration in mol/L.

Q) What value of measured pIC50 is listed for CC(=O)Oc1ccc(/C=C/C(=O)NCCSc2nc(-c3ccc(S(C)(=O)=O)cc3)n(-c3ccc(F)cc3)n2)cc1OC(C)=O ?
A) 4.74

Q) Please give the measured pIC50 for this molecule: CC(=O)Oc1ccc(/C=C/C(=O)NCCCSc2nc(-c3ccc(S(C)(=O)=O)cc3)n(-c3ccc(F)cc3)n2)cc1OC(C)=O
A) 4.76

Q) Please look up its pIC50: CC(=O)Oc1ccc(/C=C/C(=O)OCCCSc2nc(-c3ccc(S(C)(=O)=O)cc3)n(-c3ccc(Br)cc3)n2)cc1OC(C)=O
A) 4.83

Q) Can you look up the measured pIC50 of CC(=O)Oc1ccc(/C=C/C(=O)OCCCSc2nc(-c3ccc(S(N)(=O)=O)cc3)n(-c3ccc(F)cc3)n2)cc1OC(C)=O for me?
A) 4.98

Q) Reported pIC50, molecule CS(=O)(=O)c1ccc(-c2nc(SCCCOC(=O)/C=C/c3ccc(O)c(O)c3)nn2-c2ccc(F)cc2)cc1 : ____
A) 5.00

Q) Data request, read-out pIC50, for CSc1nc(-c2ccc(S(N)(=O)=O)cc2)n(-c2ccc(Cl)cc2)n1
A) 4.43

Q) Which pIC50 reading was recorded for the molecule COc1cc(/C=C/C(=O)OCCSc2nc(-c3ccc(S(C)(=O)=O)cc3)n(-c3ccc(C(F)(F)F)cc3)n2)ccc1O ?
A) 5.13

Q) Given the entry COc1cc(/C=C/C(=O)OCCSc2nc(-c3ccc(S(C)(=O)=O)cc3)n(-c3ccc(C)cc3)n2)ccc1OC(C)=O , report its measured pIC50.
A) 4.81

Q) Give the measured pIC50 of CC(=O)Oc1ccc(/C=C/C(=O)OCCSc2nc(-c3ccc(S(C)(=O)=O)cc3)n(-c3ccc(F)cc3)n2)cc1OC(C)=O .
A) 4.81

Q) Would you mind telling me what pIC50 value was observed for CC(=O)Oc1ccc(/C=C/C(=O)OCCSc2nc(-c3ccc(S(N)(=O)=O)cc3)n(-c3ccc(F)cc3)n2)cc1OC(C)=O ?
A) 5.01

Q) # get_value(readout='pIC50', item= COc1cc(/C=C/C(=O)OCCSc2nc(-c3ccc(S(C)(=O)=O)cc3)n(-c3ccc(C(F)(F)F)cc3)n2)ccc1OC(C)=O )
A) 5.01

Q) # pIC50 lookup, item COc1cc(/C=C/C(=O)OCCSc2nc(-c3ccc(S(C)(=O)=O)cc3)n(-c3ccc(Br)cc3)n2)ccc1OC(C)=O
A) 4.88

Q) I'd like to know its pIC50. The molecule in question is NS(=O)(=O)c1ccc(-c2nc(SCCOC(=O)/C=C/c3ccc(O)c(O)c3)nn2-c2ccccc2)cc1
A) 4.82

Q) Value lookup for pIC50; key = CC(=O)Oc1ccc(/C=C/C(=O)NCCCSc2nc(-c3ccc(S(N)(=O)=O)cc3)n(-c3ccccc3)n2)cc1OC(C)=O
A) 4.45

Q) For the molecule shown here, CS(=O)(=O)c1ccc(-c2nc(SCCCOC(=O)/C=C/c3ccccc3)nn2-c2ccc(Br)cc2)cc1 , give the reported pIC50.
A) 4.66

###

# target.or.system: Prostaglandin G/H synthase 2 (Rattus norvegicus)
# Sequence (P35355 whole entry): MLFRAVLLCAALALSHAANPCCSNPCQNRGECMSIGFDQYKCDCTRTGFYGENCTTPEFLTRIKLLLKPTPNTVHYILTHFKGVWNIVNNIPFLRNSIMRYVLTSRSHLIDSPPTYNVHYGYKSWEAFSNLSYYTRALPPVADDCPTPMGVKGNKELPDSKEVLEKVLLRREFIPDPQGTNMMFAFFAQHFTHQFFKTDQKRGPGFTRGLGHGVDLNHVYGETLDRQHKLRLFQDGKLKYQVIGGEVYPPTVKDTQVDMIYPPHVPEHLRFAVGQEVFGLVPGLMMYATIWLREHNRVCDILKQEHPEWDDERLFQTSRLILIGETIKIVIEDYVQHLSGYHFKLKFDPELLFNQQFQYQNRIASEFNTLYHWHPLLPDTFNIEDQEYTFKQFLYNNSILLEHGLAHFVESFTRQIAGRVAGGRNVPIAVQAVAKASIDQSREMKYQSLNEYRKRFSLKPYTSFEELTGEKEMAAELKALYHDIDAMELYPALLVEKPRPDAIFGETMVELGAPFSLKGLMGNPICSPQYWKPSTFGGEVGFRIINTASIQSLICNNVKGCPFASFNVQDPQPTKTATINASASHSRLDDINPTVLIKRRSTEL
# assay.notes: Inhibition of COX2 in rat abdominal macrophages assessed as PGE2 production pretreated for 30 mins followed by addition of 10 uM arachidonic acid as substrate for 20 mins by EIA
Exercise: for every item that follows, state its recorded pIC50.
API: returns pIC50 as number; meaning -log10 of concentration in mol/L.

Q) Quick one: pIC50 for NS(=O)(=O)c1ccc(-c2nc(SCCCOC(=O)/C=C/c3ccc(O)c(O)c3)nn2-c2ccccc2)cc1 ?
A) 6.19

Q) Field request: pIC50 | item: CC(=O)Oc1ccc(/C=C/C(=O)NCCCSc2nc(-c3ccc(S(C)(=O)=O)cc3)n(-c3ccc(F)cc3)n2)cc1OC(C)=O
A) 6.77

Q) Can you share its pIC50? I mean this compound: NS(=O)(=O)c1ccc(-c2nc(SCCOC(=O)/C=C/c3ccccc3)nn2-c2ccc(Br)cc2)cc1
A) 6.17

Q) Any idea what its pIC50 is? The compound is CC(=O)Oc1ccc(/C=C/C(=O)OCCSc2nc(-c3ccc(S(C)(=O)=O)cc3)n(-c3ccc(F)cc3)n2)cc1OC(C)=O
A) 6.74

Q) What measured pIC50 goes with CC(=O)Oc1ccc(/C=C/C(=O)OCCCSc2nc(-c3ccc(S(C)(=O)=O)cc3)n(-c3ccc(Br)cc3)n2)cc1OC(C)=O ?
A) 6.54

Q) Requested read-out: pIC50. Entry: CC(=O)Oc1ccc(/C=C/C(=O)OCCCSc2nc(-c3ccc(S(N)(=O)=O)cc3)n(-c3ccc(F)cc3)n2)cc1OC(C)=O
A) 6.44

Q) // pIC50 lookup, key: COc1cc(/C=C/C(=O)OCCSc2nc(-c3ccc(S(C)(=O)=O)cc3)n(-c3ccc(C(F)(F)F)cc3)n2)ccc1OC(C)=O
A) 6.64

Q) Entry under review: CS(=O)(=O)c1ccc(-c2nc(SCCCOC(=O)/C=C/c3ccccc3)nn2-c2ccc(Br)cc2)cc1 . Reported pIC50?
A) 6.38

Q) For the compound shown here, CS(=O)(=O)c1ccc(-c2nc(SCCOC(=O)/C=C/c3ccc(O)c(O)c3)nn2-c2ccccc2)cc1 , give the reported pIC50.
A) 6.17

Q) # pIC50 lookup, item COc1cc(/C=C/C(=O)OCCSc2nc(-c3ccc(S(C)(=O)=O)cc3)n(-c3ccc(C(F)(F)F)cc3)n2)ccc1O
A) 6.68

Q) Quick one: pIC50 of CS(=O)(=O)c1ccc(-c2nc(SCCCNC(=O)/C=C/c3ccc(O)c(O)c3)nn2-c2ccc(F)cc2)cc1 ?
A) 6.92

Q) If you can, please state the reported pIC50 value of CC(=O)Oc1ccc(/C=C/C(=O)OCCCSc2nc(-c3ccc(S(N)(=O)=O)cc3)n(-c3ccccc3)n2)cc1OC(C)=O .
A) 6.04

Q) Using the record for CC(=O)Oc1ccc(/C=C/C(=O)NCCSc2nc(-c3ccc(S(C)(=O)=O)cc3)n(-c3ccc(F)cc3)n2)cc1OC(C)=O , report its pIC50.
A) 6.80

Q) Which pIC50 is reported for this compound? CC(=O)Oc1ccc(/C=C/C(=O)OCCSc2nc(-c3ccc(S(C)(=O)=O)cc3)n(-c3ccc(C(F)(F)F)cc3)n2)cc1OC(C)=O
A) 6.72

Q) Would you mind telling me what pIC50 value was observed for CC(=O)Oc1ccc(/C=C/C(=O)NCCCSc2nc(-c3ccc(S(C)(=O)=O)cc3)n(-c3ccc(Br)cc3)n2)cc1OC(C)=O ?
A) 6.62

###

# assay.notes: Antiproliferative activity against mouse B16F10 cells after 72 hrs by MTT assay
# Assay type: functional, cell-based
# details: B16-F10, 72 h
parameter: pIC50
Field pIC50 (float): negative decimal logarithm of the concentration in molar.

Q) Which pIC50 is listed for CS(=O)(=O)c1ccc(-c2nc(SCCCOC(=O)/C=C/c3ccc(O)c(O)c3)nn2-c2ccc(F)cc2)cc1 ?
A) 4.98

Q) Look at this molecule and give its reported pIC50. CS(=O)(=O)c1ccc(-c2nc(SCCOC(=O)/C=C/c3ccc(O)c(O)c3)nn2-c2ccccc2)cc1
A) 4.82

Q) Recorded pIC50 of CC(=O)Oc1ccc(/C=C/C(=O)NCCSc2nc(-c3ccc(S(N)(=O)=O)cc3)n(-c3ccc(Br)cc3)n2)cc1OC(C)=O , please.
A) 4.82

Q) # get_value(readout='pIC50', item= CS(=O)(=O)c1ccc(-c2nc(SCCCOC(=O)/C=C/c3ccc(O)c(O)c3)nn2-c2ccc(Br)cc2)cc1 )
A) 4.88

Q) Fill in the blank: the reported pIC50 of CC(=O)Oc1ccc(/C=C/C(=O)OCCSc2nc(-c3ccc(S(C)(=O)=O)cc3)n(-c3ccc(C(F)(F)F)cc3)n2)cc1OC(C)=O is ____.
A) 4.94

Q) Please report the recorded pIC50 for CS(=O)(=O)c1ccc(-c2nc(SCCCOC(=O)/C=C/c3ccccc3)nn2-c2ccc(Br)cc2)cc1 .
A) 4.71

###

# target.or.system: Prostaglandin G/H synthase 1 (Bos taurus, UniProt O62664)
# Sequence (O62664 whole entry): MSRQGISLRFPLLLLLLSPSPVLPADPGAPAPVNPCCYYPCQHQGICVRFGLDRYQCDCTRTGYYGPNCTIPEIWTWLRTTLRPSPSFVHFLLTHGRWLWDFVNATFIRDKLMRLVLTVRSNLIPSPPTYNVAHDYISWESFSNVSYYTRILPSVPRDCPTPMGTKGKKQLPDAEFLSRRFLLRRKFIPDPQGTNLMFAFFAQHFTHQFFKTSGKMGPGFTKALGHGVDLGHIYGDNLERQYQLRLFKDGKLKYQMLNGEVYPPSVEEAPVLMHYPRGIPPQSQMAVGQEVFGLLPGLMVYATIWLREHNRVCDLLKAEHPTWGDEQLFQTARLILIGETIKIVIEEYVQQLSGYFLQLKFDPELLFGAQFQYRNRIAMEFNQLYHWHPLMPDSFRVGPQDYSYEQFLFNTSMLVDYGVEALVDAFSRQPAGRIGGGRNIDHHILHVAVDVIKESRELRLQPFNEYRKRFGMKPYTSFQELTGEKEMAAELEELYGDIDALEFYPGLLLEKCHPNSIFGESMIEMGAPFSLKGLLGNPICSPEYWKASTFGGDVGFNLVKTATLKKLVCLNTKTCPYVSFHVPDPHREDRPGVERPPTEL
# assay.notes: Inhibition of COX1 in calf endotheliocyte assessed as 6keto-PGF1alpha production pretreated for 20 mins followed by addition of 10 uM arachidonic acid as substrate for 20 mins by radioimmuno assay
Task for the reader: assign each of the following molecules its reported pIC50.
In plain terms, pIC50 is the concentration in mol/L turned into minus its base-10 logarithm.

Q) Name the reported pIC50 value associated with the molecule CS(=O)(=O)c1ccc(-c2nc(SCCCOC(=O)/C=C/c3ccc(O)c(O)c3)nn2-c2ccc(F)cc2)cc1
A) 4.90

Q) I have this molecule here, CS(=O)(=O)c1ccc(-c2nc(SCCCNC(=O)/C=C/c3ccc(O)c(O)c3)nn2-c2ccc(F)cc2)cc1 , and I need its recorded pIC50.
A) 4.88

Q) Dear colleague, I am looking for the recorded pIC50 of the following molecule: CS(=O)(=O)c1ccc(-c2nc(SCCCOC(=O)/C=C/c3ccccc3)nn2-c2ccc(Br)cc2)cc1
A) 4.34

Q) Data request, read-out pIC50, for COc1cc(/C=C/C(=O)OCCSc2nc(-c3ccc(S(C)(=O)=O)cc3)n(-c3ccc(C(F)(F)F)cc3)n2)ccc1O
A) 4.69
